Known pIC50 of a selection of molecules
tested.on: Potassium voltage-gated channel subfamily A member 1 (Homo sapiens)
Sequence (Q09470 whole entry): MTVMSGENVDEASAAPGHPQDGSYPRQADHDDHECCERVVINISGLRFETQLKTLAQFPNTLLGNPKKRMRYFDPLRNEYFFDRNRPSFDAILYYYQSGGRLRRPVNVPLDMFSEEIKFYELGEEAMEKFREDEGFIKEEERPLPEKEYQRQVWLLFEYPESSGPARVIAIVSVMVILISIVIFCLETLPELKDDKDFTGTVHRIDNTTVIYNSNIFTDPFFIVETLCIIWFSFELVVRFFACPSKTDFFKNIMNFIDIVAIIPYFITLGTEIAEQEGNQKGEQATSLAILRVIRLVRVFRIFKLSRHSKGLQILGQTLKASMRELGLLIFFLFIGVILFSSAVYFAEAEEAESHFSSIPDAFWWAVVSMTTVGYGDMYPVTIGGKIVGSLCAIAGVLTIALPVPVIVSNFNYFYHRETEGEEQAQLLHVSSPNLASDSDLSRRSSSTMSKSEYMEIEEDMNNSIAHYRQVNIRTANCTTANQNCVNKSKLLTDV
assay.method.text: Inhibition of Kv1.1 (unknown origin)
Please treat pIC50 as minus the base-10 logarithm of the molar concentration.

According to the records, this molecule "COc1ccc([C@@H]2Sc3ccccc3N(CCN(C)C)C(=O)[C@@H]2OC(C)=O)cc1" displays pIC50 of 3.84

Record summary for "CC[N+](CC)(CC)CC" : reported pIC50 = 4.52

# pIC50 (molecule: "COc1cc(CNC(=O)CCCC/C=C/C(C)C)ccc1O" ) is 4.54

---
pIC50 reading for O=C(NCC1CCCCN1)c1cc(OCC(F)(F)F)ccc1OCC(F)(F)F (stereo not given) [FLECAINIDE] : 3.68

Notebook: "COC(=O)C1=C(C)NC(C)=C(C(=O)OC)C1c1ccccc1[N+](=O)[O-]" , pIC50 read as 4.02

###

assay.method.text: Partition coefficient, logP of the compound
Type: physicochemical
study.conditions: octanol/water
reported.endpoint: logP
Provide a numeric answer; units are not to be included.

Entry "Cc1ccc(C(c2ccc(C)cc2)(c2ccc(C(=O)NCCN)[nH]2)c2ccc(C(=O)NCCN)[nH]2)cc1.Cl.Cl" — recorded logP = -1.05
